Cited source: PubChem BioAssay (NCI)

# experimentDescription: NCI Yeast Anticancer Drug Screen. Data for the sgs1 mgt1 strain (AID 161);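 note: 0% = growth of cultures given vehicle only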
# protocolConditions: S. cerevisiae sgs1 mgt1 strain, at 50.0 µM, active compounds read high
Compounds without any hit were thinned out: in the full panel of roughly 79,000, 15% have a hit.
measurementKind: growth inhibition (%)
Reply numerically in %, unit not repeated.

A selection of reference data follows.
compound	growth inhibition / %
Cc1cc(C)c(NC(=O)Nc2cccc(Cl)c2)c(C)c1	1.7
O=C(C(=O)c1cccc(C(=O)C(=O)c2ccccc2)c1)c1ccccc1	-15.2
COc1cc(=O)[nH]c(-c2ccccc2)c1OC	9
Oc1c(/N=N/C(=S)NCCCN2CCN(CCCNC(=S)/N=N/c3[nH]c4ccccc4c3O)CC2)[nH]c2ccccc12	20.6
CC1(C)CCC2(C)CCC3(C)C(=CCC4C5(C)CCC(O)C(C)(C)C5CCC43C)C2C1 (stereo not given)	-10.2
CC(C)(O)c1ccccc1[S+]1OC(C)(C)c2ccccc21 (stereo not given)	30.3

Q: Give its growth inhibition value. Item: `CCCCN(CCCC)CC(=O)NC(N)=O`
Result: -6.95

Q: Then what about the compound Cc1ccc(C2[C@H]3C(=O)N(c4ccc(Cc5ccc(N6C(=O)[C@@H]7ON(c8ccccc8)C(c8ccc(C)cc8)[C@@H]7C6=O)cc5)cc4)C(=O)[C@H]3ON2c2ccccc2)cc1 (stereo not given in full) ?
Result: -8.1

Q: Then what about the compound S=C1CC(c2ccc(Cl)cc2)Sc2ccccc2N1 (stereo not given) ?
Result: -9.4

Q: Then what about the compound `O=C(O)CC(/C=C\C(=O)C(=O)O)=C\O` ?
Result: -11.6

----------
Item-by-item account of growth inhibition
# experimentDescription: NCI Yeast Anticancer Drug Screen. Data for the cln2 rad14 strain (AID 165);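 note: 0% = growth equal to vehicle treated cultures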
# protocolConditions: S. cerevisiae cln2 rad14 strain, at 50.0 µM, active compounds read high
The panel holds about 79,000 compounds, 15% with a hit somewhere; the sample as a whole holds those more often.
Reply numerically in %, unit not repeated.

A selection of reference data follows.
> print(dat)
                                   compound  measuredvalue
1                  CSc1ccc(NC(=S)NN(C)C)cc1           9.35
2  Cc1nn(C(=O)c2ccc(Cl)cc2)c2c1C(c1ccc(O)cc1)SC(N)=N2 (stereo unspecified)          -26.8
3  COc1cccc(C)c1C(O)CC1CCCN1 (stereo unspecified)           29.8
4  COc1ccc(C(=O)NC(=S)Nc2cccc([N+](=O)[O-])c2)cc1          -21.6
5                         Nc1nc(Cl)nc(Cl)n1           3.75

Q: Give its growth inhibition value. Item: `CC(C)CC(CC(C)C)=NNC(N)=O`
Result: 18.9

Q: Then what about the compound `c1ccc2c(c1)[nH]c1ccncc12` ?
Result: -40

Q: Then what about the compound `CSc1ccc(Nc2ncnc(N)n2)cc1` ?
Result: -1.4

Q: Then what about the compound `Cc1ccc(Cc2ccccc2C(=O)O)cc1` ?
Result: -42.9

Q: Then what about the compound `NC(=O)n1ccc(CC(O)(C(F)(F)F)C(F)(F)F)n1` ?
Result: 55.1

Q: Then what about the compound `c1ccc(-c2cccc(-c3ccccc3)n2)cc1` ?
Result: -10.8

Q: Then what about the compound `COP(=O)(OC)/C(=C\c1cn(C(c2ccccc2)(c2ccccc2)c2ccccc2)cn1)NC(C)=O` ?
Result: -22.1

Q: Then what about the compound Cc1cn(C2CC(O)C(CO)O2)c(=O)nc1NCc1cccs1 (stereo unspecified) ?
Result: -9.15

Q: Then what about the compound `Cc1cc(C)c(/C=N/NC(=O)NN)c(C)c1` ?
Result: -2.1

Q: Then what about the compound `COc1cc(/C=C/c2ccnnc2)cc(OC)c1OC` ?
Result: -0.35

Q: Then what about the compound `O=C1OC(/C=C/c2ccccc2)=NC/1=C\c1ccccc1Cl` ?
Result: 21.6

Q: Then what about the compound `Cc1ccsc1C(=O)c1ccccc1[N+](=O)[O-]` ?
Result: -20.8

Q: Then what about the compound COC12OCCN(C)C1=CC(=O)C1N=NCC12 (stereo unspecified) ?
Result: 8.3

Q: Then what about the compound COc1ccc(CC2CC(Cc3ccc(OC)c(OC)c3)C(=O)O2)cc1OC (stereo unspecified) ?
Result: -33.2

Q: Then what about the compound Cc1cc(OC(=O)c2ccc(N)cc2)ccc1C1=NCC(C)S1 (stereo unspecified) ?
Result: -3.05

Q: Then what about the compound `COc1cc(O)c(OC)c(O)c1C(C)=O` ?
Result: -19.7

Q: Then what about the compound `CCCSS[C@H]1NC(=O)[C@H]1NC(=O)COc1ccccc1` ?
Result: 3.05

Q: Then what about the compound O=C(O)C1CC2CC(=O)C1C2 (stereo unspecified) ?
Result: -9.75

----------
# experimentDescription: NCI Yeast Anticancer Drug Screen. Data for the sgs1 mgt1 strain (AID 161);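 note: 0% = growth of cultures given vehicle only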
# protocolConditions: S. cerevisiae sgs1 mgt1 strain, at 50.0 µM, active compounds read high
About 79,000 compounds went through this panel and 15% of them were active in at least one assay; those are over-represented in the sample as a whole. Where a SMILES comes first, the peptide text is derived from it. The star is where a group is joined. Bz = O=C(c1ccccc1)*; Bn = c1ccc(C*)cc1; βAla = NCCC(=O)O
Item-by-item account of growth inhibition
Reply numerically in %, unit not repeated.

A selection of reference data follows.
molecule	growth inhibition [%]
CC1(C)C=Cc2c(ccc3[nH]c4occc4c(=O)c23)O1	-16.8
c1nnco1	-2.5
O[C@H]1[C@H]2c3cc4c(cc3CN3CCC(C[C@@H]1O)[C@H]23)OCO4 (stereo partly specified)	9.65

Q: Give its growth inhibition value. Item: `OC1(CSc2ccccc2)CCCCC1`
Result: 14.5

Q: Then what about the molecule `Cc1cnc2[nH]c(-c3ccccc3)cc(=O)c2c1` ?
Result: -0.9

Q: Then what about the molecule `Cc1nc(-c2cccnc2)sc1C(=O)/C=C/c1cccc([N+](=O)[O-])c1` ?
Result: 23.9

Q: Then what about the molecule COCCCC(NC(=O)C(CC(C)C)NC(=O)OCc1ccc(OC)cc1)C(N)=O (stereo unspecified) ?
Result: -22.9

Q: Then what about the molecule `c1ccc2c(c1)Cc1c-2n[nH]c1-c1[nH]nc2c1Cc1ccccc1-2` ?
Result: 34.8

Q: Then what about the molecule `O=[N+]([O-])c1ccc(N/N=C/c2ccccc2Cl)cc1` ?
Result: 26.4

Q: Then what about the molecule `CC(=S)NC=C(C(N)=O)C(N)=O` ?
Result: 11.7

Q: Then what about the molecule COC(=O)C(CSCc1ccccc1)NC(=O)C(CSCc1ccccc1)NC(=O)CCNC(=O)c1ccccc1 (stereo unspecified) ({Bz-βAla}-Cys(Bn)-Cys(Bn)-OMe; configuration not given here) ?
Result: 2.1

----------
Item-by-item account of growth inhibition
# experimentDescription: NCI Yeast Anticancer Drug Screen. Data for the rad50 strain (AID 155);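 note: 0% = growth of vehicle-only cultures of the same strain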
# protocolConditions: S. cerevisiae rad50 strain growth inhibition; at 50.0 µM; active compounds read high
This is part of a sample that, as a whole, favours compounds with a hit. Of some 79,000 tested, about 15% had one in any assay.
Reply numerically in %, unit not repeated.

A selection of reference data follows.
> print(dat)
                                   compound  measurementunit  measuredvalue
1  COc1ccccc1C1C2=C(COC2=O)Oc2cc3c(cc21)OCO3 (stereo not drawn)                %          -20.8
2  CC1SC2(C(=O)Nc3ccccc32)N(c2ccc(Cl)cc2)C1=O (stereo not drawn)                %           21.6

Q: Give its growth inhibition value. Item: `COc1ccc2c(c1)N(S(=O)(=O)c1ccc(C)cc1)C[C@@H]1c3cc(O)c(OCc4ccccc4)cc3O[C@H]21`
Result: -8.95

Q: Then what about the compound `Cc1cccc(-c2cc(=O)c3c(C)ccnc3[nH]2)c1` ?
Result: 10.3

Q: Then what about the compound `CN1CN(C)C(c2ccncc2)=C1c1ccncc1` ?
Result: -36

----------
# experimentDescription: NCI Yeast Anticancer Drug Screen. Data for the mec2-1 strain (AID 157)
# protocolConditions: S. cerevisiae mec2-1 strain, at 50.0 µM, active compounds read high
This is part of a sample that, as a whole, favours compounds with a hit. Of some 79,000 tested, about 15% had one in any assay. Calls of active or inactive are those of the source. No stated cut-off is given here; in the data, active means growth inhibition above about 70%; inactive means the rest.
measurementKind: growth inhibition

Q: Give its growth inhibition value. Item: `COc1c(C)c2c(c(Br)c1N)COCO2`
Result: 16.9% (inactive)

Q: Then what about the compound `OC1(c2ccc(F)cc2)CCNCC1` ?
Result: -7.55% (inactive)

Q: Then what about the compound `CCNC(=O)Oc1cccc(NC(=O)CC)c1` ?
Result: -4.2% (inactive)

Q: Then what about the compound `O=C1c2ccccc2-c2ccc(N3C(=O)c4c(Br)c(Br)c(Br)c(Br)c4C3=O)cc21` ?
Result: -2.2% (inactive)

Q: Then what about the compound O=CC(NC(=O)N(CCF)N=O)C(O)C(O)C(O)CO (stereo unspecified) ?
Result: -4.05% (inactive)
